// provenance: PubChem BioAssay (Tox21)

- test_description: qHTS assay to identify small molecule agonists or antagonists of the thyroid stimulating hormone receptor (TSHR) signaling pathway - wild type cell line counter screen (AID 1259384); also: % is scaled to controls: 0 for no effect and ±100 for the full control effect
- reported_conditions: HEK293 wild type, cAMP HTRF counter-screen, active compounds read high; series mostly up to 92.4 µM
Inconclusive results are not listed. The source made the active and inactive calls. Calls follow the shape of the full dose curve.
reported_property: cAMP activity change

INSERT INTO measurements (compound, result) VALUES
  ('Cc1ccc(-n2nc(C(C)(C)C)cc2NC(=O)Nc2ccc(OCCN3CCOCC3)c3ccccc23)cc1', 'inactive'),
  ('O=c1[nH]sc2ccccc12', 'inactive'),
  ('CCN(C(=O)c1cc(C)cc(OC[C@H](C)Nc2ccncc2)c1)C(C)C', 'inactive'),
  ('Clc1ccccc1C(c1ccccc1)(c1ccccc1)n1ccnc1', 'inactive'),
  ('CCCCCCCCCCCCCCCCCC[N+](C)(C)C', 'inactive'),
  ('COc1cccc2c1C(=O)c1c(O)c3c(c(O)c1C2=O)C[C@@](O)(C(=O)CO)C[C@@H]3O[C@H]1C[C@H](N)[C@H](O[C@@H]2CCCCO2)[C@H](C)O1', 'inactive'),
  ('CN1CCN(CCC(=O)N2c3ccccc3Sc3ccc(C(F)(F)F)cc32)CC1', 'inactive'),
  ('CCCC/C=C/CCCCO', 'inactive'),
  ('N#CC1(c2ccc(F)cc2)CCC(=O)CC1', 'inactive'),
  ('O=C(O)c1ccc(Cl)c(Cl)c1', 'inactive'),
  ('Cc1cccc(N(C)C(=S)Oc2ccc3c(c2)C2CCC3C2)c1 (stereo unspecified)', 'inactive'),
  ('CCc1cc(Cc2cc(CC)cc(C(C)(C)C)c2O)c(O)c(C(C)(C)C)c1', 'inactive'),
  ('CN(C)CCCOC1(Cc2ccccc2)CCCCCC1', 'inactive'),
  ('CCN1/C(=C/C=C/c2sc3ccccc3[n+]2CC)Sc2ccccc21', '-0.304% [at 18.9 µM] (inactive)'),
  ('CC(=O)S[C@@H]1CC2=CC(=O)CC[C@]2(C)[C@H]2CC[C@@]3(C)[C@@H](CC[C@@]34CCC(=O)O4)[C@H]12', 'inactive'),
  ('CCCCCCCCCCCCCC[P+](CCCC)(CCCC)CCCC (tested in a mixture with another compound)', 'inactive'),
  ('CC(C)=CCOc1ccc(/C=C/C(=O)c2ccc(OCC=C(C)C)cc2OCC(=O)O)cc1', 'inactive'),
  ('C/C=C(\C)C(=O)OCc1ccccc1', 'inactive'),
  ('OCCN1CCN(CC/C=C2/c3ccccc3Sc3ccc(C(F)(F)F)cc32)CC1', 'inactive'),
  ('CC(C)C(C)(C)C(C)(C)C(C)(C)S', 'inactive'),
  ('CCN(Cc1cccnc1)C(=O)c1cccc(Cl)c1[C@]1(C)C(=O)N(Cc2ccc(OC)cc2OC)c2ccc(Cl)cc21', 'inactive'),
  ('CCCCCCCCNC(C)C(O)c1ccc(SC(C)C)cc1 (stereo unspecified)', 'inactive'),
  ('O=c1cc(-c2ccc(O)cc2)oc2cc(O)cc(O)c12', 'inactive'),
  ('OCCCCCCCCCCCCBr', 'inactive'),
  ('CCCCCCCCCCn1cc[n+](CCCCCCCCCC)c1C', 'inactive'),
  ('CSc1ccc(C(=O)c2[nH]c(=O)[nH]c2C)cc1', 'inactive'),
  ('Clc1ccc2nsnc2c1NC1=NCCN1', 'inactive'),
  ('Cn1cc(C(=O)[C@@H]2CCc3nc[nH]c3C2)c2ccccc21', 'inactive'),
  ('CCCCCCCCCCCCCCCC(=O)OC[C@H](O)[C@H]1OC(=O)C(O)=C1O', 'inactive'),
  ('O=c1[nH]sc2cc(Cl)ccc12', 'inactive'),
  ('COC(=O)c1cc(Cl)ccc1OC', 'inactive'),
  ('O=C(Nc1cccc(C(F)(F)F)c1)c1cc(Br)cc(Br)c1O', 'inactive'),
  ('O=c1c(-c2ccccc2)c1-c1ccccc1', 'inactive'),
  ('O=C(O)c1cc(O)c2c(c1)C(=O)c1cccc(O)c1C2=O', 'inactive'),
  ('Cc1cc(O)c(C(C)(C)C)cc1C(C)(C)C', 'inactive'),
  ('ON=C1CCCC1', 'inactive'),
  ('NNc1nc(-c2ccccc2)cs1', 'inactive'),
  ('CCCCN(CCCC)c1ccc(C(=O)c2ccccc2C(=O)O)c(O)c1', 'inactive'),
  ('C[C@]12CCC(=O)C=C1CC[C@@H]1[C@@H]2[C@@H](O)C[C@@]2(C)[C@H]1CC[C@]2(O)C(=O)COC(=O)CCC(=O)O', 'inactive'),
  ('NC(=NCCCCCCN=C(N)/N=C(\N)Nc1ccc(Cl)cc1)/N=C(\N)Nc1ccc(Cl)cc1', 'inactive'),
  ('CCCCC(CC)COC(=O)c1ccccc1C(=O)O (stereo unspecified)', 'inactive'),
  ('Oc1cccc(-c2c3nc(c(-c4cccc(O)c4)c4ccc([nH]4)c(-c4cccc(O)c4)c4nc(c(-c5cccc(O)c5)c5ccc2[nH]5)CC4)C=C3)c1', 'inactive'),
  ('CCCCN(CCCC)C(=O)N(CCCC)CCCC', 'inactive'),
  ('Nc1ccc(N)c2ccccc12', 'inactive'),
  ('CCCCCCCCCCCCCCCS(=O)(=O)Oc1ccccc1', 'inactive'),
  ('Nc1c(Cl)cc(Cl)cc1Cl', 'inactive');
